Tested on: Bladder Tissue
EXPERIMENT_DESCRIPTION: Relaxation of KCl-stimulated isolated rat bladder strips (contractile activity)
Set-up: species or system Sprague-Dawley rats
SETUP_CONDITIONS: Rattus norvegicus, 0.5 h
pIC50: −log10 of the molar value.
Measured pIC50, listed per entry for reference.

- COMPOUND: "CC1(C)c2ccc([N+](=O)[O-])cc2-c2[nH]c3c(C(=O)O)cccc3c21"
  STUDY_SYSTEM: "Bladder Tissue"
  pIC50: 5.28
- COMPOUND: "O.O.O=C(O)c1cccc2c1[nH]c1c3cc([N+](=O)[O-])ccc3oc21 [Example 4, dihydrate]"
  STUDY_SYSTEM: "Bladder Tissue"
  pIC50: 5.20
- COMPOUND: "CN(O)C(=O)c1cccc2c1[nH]c1c3cc(Br)ccc3oc21"
  STUDY_SYSTEM: "Bladder Tissue"
  pIC50: 4.70
- COMPOUND: "O=C(O)c1cccc2c1[nH]c1c3cc(I)ccc3oc21"
  STUDY_SYSTEM: "Bladder Tissue"
  pIC50: 5.21
- COMPOUND: "O=C(O)c1cccc2c1Cc1c-2[nH]c2ccc(F)cc12"
  STUDY_SYSTEM: "Bladder Tissue"
  pIC50: 4.90
- COMPOUND: "O=C(O)c1cccc2c1Cc1c-2[nH]c2ccc(OC(F)(F)F)cc12"
  STUDY_SYSTEM: "Bladder Tissue"
  pIC50: 4.81
- COMPOUND: "O=C(O)c1cccc2c1[nH]c1c3cc(Cl)ccc3oc21"
  STUDY_SYSTEM: "Bladder Tissue"
  pIC50: 5.24
- COMPOUND: "O=C(O)c1cccc2c1[nH]c1c3cc(Br)ccc3oc21"
  STUDY_SYSTEM: "Bladder Tissue"
  pIC50: 4.82
- COMPOUND: "O=C(O)c1cccc2c1Cc1c-2[nH]c2ccc(Cl)cc12"
  STUDY_SYSTEM: "Bladder Tissue"
  pIC50: 4.65
- COMPOUND: "O=C(O)c1cccc2c1[nH]c1c3ccccc3oc21"
  STUDY_SYSTEM: "Bladder Tissue"
  pIC50: 4.51
- COMPOUND: "CC(NC(=O)c1cccc2c1[nH]c1c3cc(Br)ccc3oc21)C(C)(C)C (stereo not drawn)"
  STUDY_SYSTEM: "Bladder Tissue"
  pIC50: 4.86
- COMPOUND: "O=C(O)c1cccc2c1Cc1c-2[nH]c2ccc(Br)cc12"
  STUDY_SYSTEM: "Bladder Tissue"
  pIC50: 5.36

----------
Test system: whole rat bladder
EXPERIMENT_DESCRIPTION: Relaxation of whole rat bladder ex-vivo (partial outlet obstruction, developed bladder pressure)
Design: species or system Spraque-Dawley rats
SETUP_CONDITIONS: isolated whole bladder of rats 6 weeks after partial outlet obstruction, 30 minute challenge
Protocol: Several compound in this invention were tested for their ability to relax a whole rat bladder ex-vivo. The protocol for this assay is as follows. Female Spraque-Dawley rats weighing between 200-300 g were anesthetized with Nembutol® (50 mg/kg, i.p.). After achieving adequate anesthesia, the bladder and urethra were exposed through a mid-line incision. A 4-0 silk ligature was tied around the proximal end of the urethra in the presence of a 1 mm diameter stainless steel rod. […]
pIC50: −log10 of the molar value.
REPORTED_ENDPOINT: pIC50

- SMILES_STR: "CC1(C)c2ccc([N+](=O)[O-])cc2-c2[nH]c3c(C(=O)O)cccc3c21"
  STUDY_SYSTEM: "whole rat bladder"
  VALUE_MEASURED: 5.30

----------
Measured melting point, listed per entry for reference.

- MOLECULE: "OCc1cccc2c1[nH]c1c3cc(Br)ccc3oc21"
  melting point: "218 to 219 °C"
- MOLECULE: "CNC(=O)c1cccc2c1[nH]c1c3cc(Br)ccc3oc21"
  melting point: "264 to 265 °C (dec.)"
- MOLECULE: "COC(=O)c1cccc2c1[nH]c1c3cc(Br)ccc3oc21"
  melting point: "204 to 205 °C"
- MOLECULE: "CN(O)C(=O)c1cccc2c1[nH]c1c3cc(Br)ccc3oc21"
  melting point: "174 to 175 °C"
- MOLECULE: "O=C(O)c1cccc2c1Cc1c-2[nH]c2ccc(Cl)cc12"
  melting point: "> 300 °C"
- MOLECULE: "CCOC(=O)c1cccc2c1Cc1c-2[nH]c2ccc(Cl)cc12"
  melting point: "202 to 204 °C"
- MOLECULE: "N#Cc1cccc2c1[nH]c1c3cc(Br)ccc3oc21.O (hydrate or solvate)"
  melting point: "277 to 280 °C (dec.)"
- MOLECULE: "CCOC(=O)c1cccc2c1Cc1c-2[nH]c2ccc(Br)cc12"
  melting point: "198 to 200 °C"
- MOLECULE: "CCC(C)(C)NC(=O)c1cccc2c1[nH]c1c3cc(Br)ccc3oc21"
  melting point: "242 to 244 °C (dec.)"

----------
- MOLECULE: "O=C(O)c1cccc2c1[nH]c1c3cc(I)ccc3oc21"
  melting point: "297 °C (dec.)"
- MOLECULE: "O=C(O)c1cccc2c1Cc1c-2[nH]c2ccc(Br)cc12"
  melting point: "328 to 330 °C (dec.)"
- MOLECULE: "Brc1ccc2oc3c4cccc(-c5nnn[nH]5)c4[nH]c3c2c1"
  melting point: "275 to 277 °C (dec.)"
- MOLECULE: "COC(=O)c1cccc2c3oc4ccc(Br)cc4c3n(C)c12"
  melting point: "195 to 196 °C"
- MOLECULE: "O=C(O)c1cccc2c3c([nH]c12)-c1cc(Br)ccc1C3"
  melting point: "245 to 247 °C (dec.)"
- MOLECULE: "O=Cc1cccc2c1[nH]c1c3cc(Br)ccc3oc21"
  melting point: "280 to 281 °C"
- MOLECULE: "O=C(O)c1cccc2c1Cc1c-2[nH]c2ccc(F)cc12"
  melting point: "> 300 °C"
- MOLECULE: "CC1(C)c2ccc([N+](=O)[O-])cc2-c2[nH]c3c(C(=O)O)cccc3c21"
  melting point: "310 °C (dec.)"
- MOLECULE: "CC(NC(=O)c1cccc2c1[nH]c1c3cc(Br)ccc3oc21)C(C)(C)C (stereo not drawn)"
  melting point: "173 to 175 °C"
- MOLECULE: "O=C(O)c1cccc2c1[nH]c1c3ccccc3oc21"
  melting point: "279 to 280 °C (dec.)"
- MOLECULE: "O=C(O)c1cccc2c1[nH]c1c3cc(Cl)ccc3oc21"
  melting point: "303 °C (dec.)"
- MOLECULE: "O=C(O)c1cccc2c1Cc1c-2[nH]c2ccc(OC(F)(F)F)cc12"
  melting point: "256 to 265 °C (dec.)"
- MOLECULE: "NC(=O)c1cccc2c1[nH]c1c3cc(Br)ccc3oc21"
  melting point: "300 to 301 °C"
- MOLECULE: "O=C(O)c1cccc2c1[nH]c1c3cc(Br)ccc3oc21"
  melting point: "312 to 313 °C"
- MOLECULE: "O.O.O=C(O)c1cccc2c1[nH]c1c3cc([N+](=O)[O-])ccc3oc21 (hydrate or solvate)"
  melting point: "325 °C (dec.)"

----------
Test system: Bladder Tissue
EXPERIMENT_DESCRIPTION: Relaxation of KCl-stimulated isolated rat bladder strips (contractile activity)
Parameters: species or system Sprague-Dawley rats
SETUP_CONDITIONS: rat bladder strips, additional 15 mM KCl, 30 μM test compound; read-out: Bladder Tissue I = Percent inhibition at 30 μM

- COMPOUND: "CCOC(=O)c1cccc2c1Cc1c-2[nH]c2ccc(Br)cc12"
  inhibition at 30 µM (%): 20
- COMPOUND: "COC(=O)c1cccc2c1[nH]c1c3cc(Br)ccc3oc21"
  inhibition at 30 µM (%): 31
- COMPOUND: "N#Cc1cccc2c1[nH]c1c3cc(Br)ccc3oc21 [Example 10, hydrate]"
  inhibition at 30 µM (%): 10.1
- COMPOUND: "CCC(C)(C)NC(=O)c1cccc2c1[nH]c1c3cc(Br)ccc3oc21"
  inhibition at 30 µM (%): 28.5
- COMPOUND: "NC(=O)c1cccc2c1[nH]c1c3cc(Br)ccc3oc21"
  inhibition at 30 µM (%): 13.5
- COMPOUND: "O=Cc1cccc2c1[nH]c1c3cc(Br)ccc3oc21"
  inhibition at 30 µM (%): 19
- COMPOUND: "Brc1ccc2oc3c4cccc(-c5nnn[nH]5)c4[nH]c3c2c1"
  inhibition at 30 µM (%): 30.9
- COMPOUND: "COC(=O)c1cccc2c3oc4ccc(Br)cc4c3n(C)c12"
  inhibition at 30 µM (%): 4.5
- COMPOUND: "CCOC(=O)c1cccc2c1Cc1c-2[nH]c2ccc(Cl)cc12"
  inhibition at 30 µM (%): 8
- COMPOUND: "CNC(=O)c1cccc2c1[nH]c1c3cc(Br)ccc3oc21"
  inhibition at 30 µM (%): 4.8
